- MEASURED_TARGET: human DGAT1 (Homo sapiens)
- Sequence (O75907 1-488): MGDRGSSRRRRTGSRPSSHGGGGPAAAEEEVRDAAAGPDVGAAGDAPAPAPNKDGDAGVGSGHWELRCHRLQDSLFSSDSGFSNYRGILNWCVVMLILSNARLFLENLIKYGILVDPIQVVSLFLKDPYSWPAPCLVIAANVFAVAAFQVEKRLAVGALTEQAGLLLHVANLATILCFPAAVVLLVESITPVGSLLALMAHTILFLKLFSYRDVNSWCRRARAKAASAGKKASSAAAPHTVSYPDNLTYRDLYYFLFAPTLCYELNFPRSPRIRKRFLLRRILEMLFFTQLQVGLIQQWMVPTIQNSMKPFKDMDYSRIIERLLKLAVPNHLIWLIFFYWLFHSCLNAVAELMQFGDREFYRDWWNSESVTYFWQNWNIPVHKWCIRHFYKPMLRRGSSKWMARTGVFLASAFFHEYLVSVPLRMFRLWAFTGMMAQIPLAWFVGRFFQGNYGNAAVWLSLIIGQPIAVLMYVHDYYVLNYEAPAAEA
Kindly supply the reported IC50 values for the records listed here.
Reply with just the number (in nM).

So what does the record say about IC50 for O=C(O)C[C@H]1CC[C@H](OC2CCN(c3ccc(-c4nc5cc(C(F)(F)F)cnc5[nH]4)cn3)CC2)CC1 ? 24

Another molecule to look at: O=C(O)C[C@H]1CC[C@@H](OC2CCN(c3ccc(-c4nc5cc(Cl)ccc5[nH]4)cn3)CC2)CC1 3

Another molecule to look at: O=C(O)CC1CC(OC2CCN(c3ccc(-c4nc5cc(F)ccc5[nH]4)cn3)CC2)C1 (stereo not shown) 51

Another molecule to look at: Cc1nc(N2CCC(O[C@H]3CC[C@@H](CC(=O)O)CC3)CC2)ccc1-c1nc2ccccc2[nH]1 6600

* * *

- MEASURED_TARGET: human DGAT1 enzyme expressed in Sf9 insect cells prepared as microsomes (Homo sapiens, UniProt O75907)
MEASUREMENT_NAME: IC50 (nM)
Reply with just the number (in nM).

So what does the record say about IC50 for COC(=O)c1ccccc1OCC1CCN(c2ccc(-c3nc4cc(C(F)(F)F)ccc4[nH]3)cn2)CC1 [Example 151] ? 2700

Another compound to look at: O=C(O)c1cc(F)ccc1OCC1CCN(c2ccc(-c3nc4cc(Cl)ccc4[nH]3)cn2)CC1 [Example 148] 1070

Another compound to look at: Cc1ccc(C(=O)O)cc1OCC1CCN(c2ccc(-c3nc4cc(C(F)(F)F)ccc4[nH]3)cn2)CC1 [Example 157] 15

Another compound to look at: O=C(O)C1(COCC2CCN(c3ccc(-c4nc5cc(C(F)(F)F)ccc5[nH]4)cn3)CC2)CCC1 [Example 162] 62

Another compound to look at: Cc1ccc(C(=O)O)cc1OCC1CCN(c2ccc(-c3nc4cc(Cl)ccc4[nH]3)cn2)CC1 [Example 156] 12

Another compound to look at: COC(=O)c1cccc(OCC2CCN(c3ccc(-c4nc5cc(C(F)(F)F)ccc5[nH]4)cn3)CC2)c1 [Example 141] 2500

Another compound to look at: O=C(O)c1ccc(F)cc1OCC1CCN(c2ccc(-c3nc4cc(Cl)ccc4[nH]3)cn2)CC1 [Example 154] 58

* * *

- MEASURED_TARGET: human DGAT1 (Homo sapiens, UniProt O75907)
pIC50: −log10 of the molar value.
# cutoff 8 applies to pIC50; >= gives satisfied, < gives not satisfied

Kindly determine if pIC50 recorded for Cc1nc(N2CCC(O[C@H]3CC[C@H](CC(=O)O)CC3)CC2)ccc1-c1nc2ccccc2[nH]1 [Example 10] is above or exactly 8. not satisfied

Another compound to look at: C[C@]1(C(=O)O)C[C@H](OC2CCN(c3ccc(-c4nc5cc(C(F)(F)F)ccc5[nH]4)cn3)CC2)C1 [Example 103] satisfied

Another compound to look at: O=C(O)CC1C[C@@H]2CC(OC3CCN(c4ccc(-c5nc6ccc(C(F)(F)F)cc6[nH]5)cn4)CC3)C[C@@H]2C1 (stereo partly shown) [Example 56] satisfied

Another compound to look at: C[C@]1(C(=O)O)CC[C@@H](OC2CCN(c3ccc(-c4nc5cc(Cl)c(Cl)cc5[nH]4)cn3)CC2)CC1 [Example 109] satisfied

Another compound to look at: CCOc1ccc2nc(-c3ccc(N4CCC(O[C@H]5CC[C@@H](CC(=O)O)CC5)CC4)nc3)[nH]c2n1 [Example 9] not satisfied

* * *

- MEASURED_TARGET: human DGAT1 enzyme expressed in Sf9 insect cells prepared as microsomes (Homo sapiens)
- Construct: made in house; host or cells: Sf9 insect cells (microsomes)
- PROTOCOL_SUMMARY: in vitro assay to identify DGAT1 inhibitors ([14C]-palmitoyl-CoA, wheat germ agglutinin beads, TopCount)
- Format: biochemical
- CONDITION_INFO: 2 hours at room temperature
Kindly supply the reported IC50 values for the records listed here.

So what does the record say about IC50 for CC(C)(COCC1CCN(c2ccc(-c3nc4cc(Cl)ccc4[nH]3)cn2)CC1)C(=O)O ? 108 nM

Another molecule to look at: CC(C)(COCC1CCN(c2ccc(-c3nc4cc(C(F)(F)F)ccc4[nH]3)cn2)CC1)C(=O)O 84 nM

Another molecule to look at: O=C(O)c1ccccc1OCC1CCN(c2ccc(-c3nc4cc(C(F)(F)F)ccc4[nH]3)cn2)CC1 14 nM

* * *

- MEASURED_TARGET: human DGAT1 (Homo sapiens, UniProt O75907)
Entry class follows IC50: low (below 6 nM), medium (6 nM to below 20 nM), high (20 nM or more)

Into which category would you place O=C(O)C[C@H]1CC[C@@H](OC2CCN(c3ccc(-c4nc5nc(C(F)(F)F)ccc5[nH]4)cn3)CC2)CC1 [Example 27] ? medium

Another molecule to look at: O=C(O)C[C@H]1CC[C@H](OC2CCN(c3ccc(-c4nc5cc(Cl)ccc5[nH]4)cn3)CC2)CC1 [Example 19] low

Another molecule to look at: O=C(O)C[C@H]1CC[C@H](OC2CCN(c3ccc(-c4nc5cc(F)c(F)cc5[nH]4)cn3)CC2)CC1 [Example 16] low

Another molecule to look at: O=C(O)c1cc(OC2CCN(c3ccc(-c4nc5cc(Cl)ccc5[nH]4)cn3)CC2)no1 [Example 130] medium

Another molecule to look at: O=C(NS(=O)(=O)c1ccccc1)[C@H]1CC[C@H](OC2CCN(c3ccc(-c4nc5cc(F)ccc5[nH]4)cn3)CC2)CC1 [Example 87] medium

Another molecule to look at: C[C@]1(C(=O)O)CC[C@H](OC2CCN(c3ccc(-c4nc5ccc(Cl)cc5[nH]4)cn3)CC2)CC1 [Example 102] low

Another molecule to look at: O=C(O)C1(C(=O)O)CC(OC2CCN(c3ccc(-c4nc5cc(C(F)(F)F)ccc5[nH]4)cn3)CC2)C1 [Example 95] high

Another molecule to look at: C[C@]1(C(=O)O)CC[C@@H](OC2CCN(c3ccc(-c4nc5cc(F)c(F)cc5[nH]4)cn3)CC2)CC1 [Example 106] medium

Another molecule to look at: CS(=O)(=O)NC(=O)[C@H]1CC[C@H](OC2CCN(c3ccc(-c4nc5cc(F)ccc5[nH]4)cn3)CC2)CC1 [Example 86] medium

Another molecule to look at: C[C@]1(C(=O)O)CC[C@H](OC2CCN(c3ccc(-c4nc5ccccc5[nH]4)cn3)CC2)CC1 [Example 101] high

Another molecule to look at: O=C(O)C[C@H]1CC[C@@H](O[C@@H]2CC3C[C@H]2CN3c2ccc(-c3nc4cc(F)ccc4[nH]3)cn2)CC1 (single isomer, unassigned; enantiomer 2) [Example 29] high

Another molecule to look at: O=C(NS(=O)(=O)C1CC1)[C@H]1CC[C@H](OC2CCN(c3ccc(-c4nc5cc(F)ccc5[nH]4)cn3)CC2)CC1 [Example 83] medium

Another molecule to look at: O=C(O)CC1C[C@@H]2CC(OC3CCN(c4ccc(-c5nc6ccc(C(F)(F)F)cc6[nH]5)cn4)CC3)C[C@@H]2C1 (some centres unmarked) [Example 57] low

* * *

Kindly supply the reported log10 of IC50 values for the records listed here.
- MEASURED_TARGET: human DGAT1 (Homo sapiens)
// do not treat as linear: log10 of IC50, unit µM

So what does the record say about log10 of IC50 for CCOc1ccc2nc(-c3ccc(N4CCC(O[C@H]5CC[C@H](CC(=O)O)CC5)CC4)nc3)[nH]c2n1 ? -1.57

Another compound to look at: COC(=O)c1cccc(COC2CCN(c3ccc(-c4nc5cc(C(F)(F)F)ccc5[nH]4)cn3)CC2)c1 -1.00

Another compound to look at: O=C(O)c1ncc(OC2CCN(c3ccc(-c4nc5cc(Cl)ccc5[nH]4)cn3)CC2)cn1 -1.00

Another compound to look at: O=C(O)C[C@H]1CC[C@@H](OC2CCN(c3ccc(-c4nc5cc(F)ccc5[nH]4)cn3)C2)CC1 (single isomer, unassigned) [Example 140] -1.05

Another compound to look at: O=C(O)C[C@H]1CC[C@@H](OC2CCN(c3ccc(-c4nc5cc(F)ccc5[nH]4)cn3)C2)CC1 (single isomer, unassigned) [Example 139] -1.92

Another compound to look at: O=C(O)c1ccc(OC2CCN(c3ccc(-c4nc5ccc(C(F)(F)F)cc5[nH]4)cn3)CC2)nc1 -2.70

Another compound to look at: O=C(O)C1(COC2CCN(c3ccc(-c4nc5ccc(C(F)(F)F)cc5[nH]4)cn3)CC2)CCC1 -2.70
